Tested on: DIV30
protocol: qHTS profiling for inhibitors of Plasmodium falciparum proliferation (AID 504749); also: nearly all actives have a fitted effect of over 60% in size; also: potency is read from the fitted curve at half-maximal effect
measurement parameters: P. falciparum in erythrocytes, SYBR Green DNA, 72 h; series mostly up to 28.7 µM
Results filed as inconclusive are left out. The source made the active and inactive calls. Calls follow the shape of the dose curve; as a rule, active = well fitted inhibition curve with a large enough effect; inconclusive = small, poorly fitted or top-dose-only effect; inactive = flat fitted curve, though single readings scatter.
measure name: Potency

Solved cases below.
1) C[C@@H](O)[C@@H]1C(=O)N2C(C(=O)O)=C([C@H]3CCCO3)S[C@H]12	inactive
2) CC1=C(C/C=C(\C)CCCC(C)CCCC(C)CCCC(C)C)C(=O)c2ccccc2C1=O (stereo not given)	inactive
3) C=C1CC[C@H](O)C/C1=C/C=C1\CCC[C@]2(C)[C@@H]([C@H](C)CC[C@@H](O)C(C)(C)O)CC[C@@H]12	13.5 µM (active)
4) NC(=O)C1CC2(NC(=O)NC2=O)c2cc(F)ccc2O1 (stereo not given)	inactive

Turning now to a further molecule:
The reported DIV30 Potency of `O=C(O)C[CH2][Ge](=[O])[O][Ge](=[O])[CH2]CC(=O)O` is inactive

----------
Test system: TAB113
protocol: qHTS profiling for inhibitors of Plasmodium falciparum proliferation (AID 504749); also: nearly all actives have a fitted effect of over 60% in size
measurement parameters: P. falciparum in erythrocytes, SYBR Green DNA, 72 h; series mostly up to 28.7 µM
Protocol: NIH National Institute of Allergy and Infectious Diseases [NIAID] NIH Chemical Genomics Center [NCGC] […] Because mature erythrocytes lack DNA, only Plasmodium-derived DNA is detected. NCGC Assay Protocol Summary: The SYBR Green viability assay was adapted from a method described previously (Plouffe et al., 2008). […] The following morning, fluorescence intensity at 485(14) nm excitation and 535(25) nm emission wavelengths was measured on an EnVision (Perkin Elmer) plate reader. […]
Records with an inconclusive call do not appear. Active and inactive are the calls of the source. The call rests on the fitted dose curve; in most records, active means well fitted inhibition curve with a large enough effect; inconclusive means small, poorly fitted or top-dose-only effect; inactive means flat fitted curve, though single readings scatter.
I would appreciate it if you answered using one of these outcomes: t = active, f = inactive

These solved cases illustrate the format of a correct answer.
1) CCCCN1CC(O)C(O)C(O)C1CO (centres undefined)	f
2) O=C(O)c1ccc(N[C@@H]2OC[C@@H](O)[C@@H](O)[C@@H]2O)cc1	f

Recorded test outcome, item CCC(=O)OC1C(N(C)C)CC(C)O[C@H]1O[C@H]1[C@H](C)[C@@H](O[C@H]2CC(OC)[C@@H](O)C(C)O2)[C@H](C)C(=O)O[C@@H](CC)[C@](C)(O)[C@@H](O)[C@H](C)C(=O)[C@@H](C)C[C@]1(C)O (some centres undefined)
f

Recorded test outcome, item `C[C@H](CN1c2ccccc2Sc2cccnc21)N(C)C`
t

Recorded test outcome, item CC(c1ncncc1F)[C@](O)(Cn1cncn1)c1ccc(F)cc1F (some centres undefined)
f

Recorded test outcome, item C[C@]12CC[C@@H]3c4ccc(O)cc4CC[C@H]3[C@@H]1C[C@H](O)C2O (some centres undefined)
f

Recorded test outcome, item C[C@]12CC[C@@H]3c4ccc(O)cc4CC[C@H]3[C@@H]1CCC2OC(=O)CCC1CCCC1 (some centres undefined)
f

Recorded test outcome, item `C/C=C1/NN(CCCN2CCN(c3cccc(Cl)c3)CC2)C(=O)N1CCOc1ccccc1`
f

Recorded test outcome, item `Nc1nc(F)nc2c1ncn2[C@@H]1O[C@H](CO)[C@@H](O)[C@H]1O`
f

----------
Tested on: P93_24
protocol: qHTS profiling for inhibitors of Plasmodium falciparum proliferation (AID 504749); also: nearly all actives have a fitted effect of over 60% in size
measurement parameters: P. falciparum in erythrocytes, SYBR Green DNA, 72 h; series mostly up to 28.7 µM
Records with an inconclusive call do not appear. Active and inactive are the calls of the source. The call rests on the fitted dose curve; in most records, active means well fitted inhibition curve with a large enough effect; inconclusive means small, poorly fitted or top-dose-only effect; inactive means flat fitted curve, though single readings scatter.
I would appreciate it if you answered using one of these outcomes: class 1 = active, class 0 = inactive

These solved cases illustrate the format of a correct answer.
1. O=C(O)CC(O)CC(O)/C=C/c1c(C2CC2)nc2ccccc2c1-c1ccc(F)cc1 (stereo not drawn)	class 0
2. OCC(CO)NC1C[C@](O)(CO)[C@@H](O)[C@H](O)[C@H]1O (stereo partly drawn)	class 0
3. C[C@H](O)[C@@H]1C(=O)N2C(C(=O)O)=C(SCCN=CN)C[C@@H]12	class 0
4. OCCOC[C@H]1O[C@H](OCCO)[C@H](OCCO)[C@@H](OCCO)[C@@H]1OCCO (tested in a mixture with another compound)	class 0
5. CC(C)CCCC(C)C1CC(=O)C2=C3CCC4CC(O)CCC4(C)C3CCC21C (stereo not drawn)	class 0
6. Cn1cc(C(=O)[C@@H]2CCc3[nH]cnc3C2)c2ccccc21	class 0
7. CC[C@@]1(O)CC2CN(CCc3c([nH]c4ccccc34)[C@](C(=O)OC)(c3cc4c(cc3OC)N(C)C3[C@@](O)(C(=O)OC)C(OC(C)=O)[C@]5(CC)C=CCN6CC[C@@]43C65)C2)C1 (stereo partly drawn)	class 1

Proceed to the following item.
Recorded test outcome, item Cc1cc2nc3c(=O)[nH]c(=O)nc-3n(CC(O)C(O)C(O)COP(=O)(O)O)c2cc1C (stereo not drawn)
class 0
